Data origin: paper PMC12281142

Tested on: Mab bolletii CCUG 50184-T
test protocol: MIC against Mab bolletii CCUG 50184-T
Assay type: cell-based, Mycobacterium abscessus subsp. bolletii
measurement context: 7H9 broth (first value)
measured metric: MIC90

COc1ccc(CCN(C)CCCC(C#N)(CC=C(C)CCC=C(C)C)c2ccc(Cl)c(Cl)c2)cc1OC (stereo not drawn) [PhA13]: > 250 µM
COc1ccc(CCN(C)CCCC(C#N)(CCC2CCCCC2)c2ccc(OC)c(OC)c2)cc1OC (stereo not drawn) [PhA1]: 109 µM

Q: Quick one: MIC90 of COc1ccc(CCN(C)CCCC(C#N)(C/C=C(\C)CCC=C(C)C)c2ccc(OC)c(OC)c2)cc1OC (racemic) [PhA3] ?
A: 98 µM

Q: Quick one: MIC90 of COc1ccc(CCN(C)CCCC(C#N)(CCC2CCCCC2)c2ccc(Cl)c(Cl)c2)cc1OC (stereo not drawn) [PhA11] ?
A: > 250 µM

Q: Quick one: MIC90 of CCCCCCCCC(C#N)(CCCN(C)CCc1ccc(OC)c(OC)c1)c1ccc(Cl)c(Cl)c1 (stereo not drawn) [PhA12] ?
A: > 250 µM

Q: Quick one: MIC90 of COc1ccc(CCN(C)CCCCCCCCCCC(C#N)(c2ccc(OC)c(OC)c2)C(C)C)cc1OC (stereo not drawn) [PhA9] ?
A: 200 µM

====

Test system: M. bovis BCG
test protocol: microbe, parasite or virus in culture
Type: cell-based, Mycobacterium bovis BCG
measurement context: Mycobacterium tuberculosis variant bovis BCG, BCG, read-out: MIC90 BCG, M. bovis BCG
Recorded measurements of log10(MIC90), one per entry
All values: base-10 log of MIC90 in µg/mL.

Illustrative cases are given below, each with its answer.
NNC(=O)c1ccncc1 [INH, isoniazid, reference compound]: -0.35
CSc1ccc2c(c1)N(CCC1CCCCN1C)c1ccccc1S2 (centres unmarked) [TDZ, thioridazine, reference compound]: 1.04
COc1nc2ccc(Br)cc2cc1[C@@H](c1ccccc1)[C@@](O)(CCN(C)C)c1cccc2ccccc12: -0.85
CCCCCCCCC(C#N)(CCCN(C)CCc1ccc(OC)c(OC)c1)c1ccc(OC)c(OC)c1 (centres unmarked): 0.97

Next:
Q: Quick one: log10(MIC90) of COc1ccc(CCN(C)CCCC(C#N)(c2ccc(OC)c(OC)c2)C(C)C)cc1OC (centres unmarked) [VP, verapamil, reference compound] ?
A: 2.40

====

Test system: Mtb H37Rv
test protocol: MIC by broth microdilution against Mtb H37Rv
Type: cell-based, Mycobacterium tuberculosis
measurement context: first value of cell MIC50/MIC90; incubation 5 days
measured metric: MIC50 Mtb H37Rv (µM)
Please give a number only; it is taken to be in µM.

Illustrative cases are given below, each with its answer.
COc1ccc(CCN(C)CCCC(C#N)(CC=C(C)CCC=C(C)C)c2ccc(Cl)c(Cl)c2)cc1OC (centres unmarked): 21
COc1ccc(CCN(C)CCCC(C#N)(C/C=C(\C)CCC=C(C)C)c2ccc(OC)c(OC)c2)cc1OC (racemic): 19

Next:
Q: Quick one: MIC50 Mtb H37Rv of COc1ccc(CCN(C)CCCC(C#N)(CCC2CCCCC2)c2ccc(OC)c(OC)c2)cc1OC (centres unmarked) ?
A: 19
